For each of the molecules below, state its inhibition at 1 h, 30 µM.
# experimental_target: MAO-A (Homo sapiens, UniProt P21397)
# Sequence (P21397 whole entry): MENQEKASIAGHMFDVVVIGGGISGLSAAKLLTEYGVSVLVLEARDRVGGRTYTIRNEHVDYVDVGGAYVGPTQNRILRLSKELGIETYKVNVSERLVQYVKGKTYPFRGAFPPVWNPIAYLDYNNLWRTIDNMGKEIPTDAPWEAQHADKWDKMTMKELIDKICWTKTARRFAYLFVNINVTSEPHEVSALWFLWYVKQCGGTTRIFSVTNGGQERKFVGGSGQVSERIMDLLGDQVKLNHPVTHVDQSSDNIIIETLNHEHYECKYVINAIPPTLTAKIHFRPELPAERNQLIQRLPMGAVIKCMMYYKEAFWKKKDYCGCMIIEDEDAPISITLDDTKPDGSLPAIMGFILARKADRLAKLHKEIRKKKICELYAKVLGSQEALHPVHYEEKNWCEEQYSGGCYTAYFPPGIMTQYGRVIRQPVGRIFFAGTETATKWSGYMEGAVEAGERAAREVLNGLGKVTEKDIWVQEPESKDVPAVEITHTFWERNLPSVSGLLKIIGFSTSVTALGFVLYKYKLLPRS
# test_protocol: Inhibition of recombinant human full length N-terminal FLAG-tagged MAO-A expressed in sf9 cells at 30 uM preincubated for 15 mins followed by substrate addition and measured after 60 mins by luminescence assay relative to control
Give bare numbers, in %.

# annotated cases, reported inhibition at 1 h, 30 µM shown
> print(dat)
                                test.smiles               metric.name  experimental.result
1  CC(=O)NC[C@H]1CN(c2ccc(-c3ccc(/C=C4\SC(=S)NC4=O)cc3)c(F)c2)C(=O)O1  inhibition at 1 h, 30 µM                   99
2  CC(=O)NC[C@H]1CN(c2ccc(-c3ccc(/C=C4\NC(=S)NC4=O)cc3)c(F)c2)C(=O)O1  inhibition at 1 h, 30 µM                   99
3  CC(=O)NC[C@H]1CN(c2ccc(N3CCOCC3)c(F)c2)C(=O)O1  inhibition at 1 h, 30 µM                   76

Quick check: inhibition at 1 h, 30 µM on MAO-A (Homo sapiens, UniProt P21397), item CCN(CC)CCCN1C(=O)/C(=C/c2ccc(-c3ccc(N4C[C@H](CNC(C)=O)OC4=O)cc3F)cc2)NC1=S ?
98

* * *

# Test system: Staphylococcus aureus
# test_protocol: Antibacterial activity against methicillin-resistant Staphylococcus aureus by broth liquid microdilution method
# Format: functional
metric_name: MIC
Returns: string containing the number followed by the unit.

Required: MIC, one value per compound below.
1. CCN(CC)CCCN1C(=O)/C(=C/c2ccc(-c3ccc(N4C[C@H](CNC(C)=O)OC4=O)cc3F)cc2)SC1=S
2. CCN1C(=O)/C(=C/c2ccc(-c3ccc(N4C[C@H](CNC(C)=O)OC4=O)cc3F)cc2)NC1=S
3. CC(=O)NC[C@H]1CN(c2ccc(-c3ccc(/C=C4\NC(=S)N(CCCN5CCCCC5)C4=O)cc3)c(F)c2)C(=O)O1
4. CC(=O)NC[C@H]1CN(c2ccc(-c3ccc(/C=C4\NC(=S)N(C(C)C)C4=O)cc3)c(F)c2)C(=O)O1

1. 0.5 µg/mL
2. 0.25 µg/mL
3. 1 µg/mL
4. 1 µg/mL

Required: MIC, one value per compound below.
1. CCOC(=O)CN1C(=O)/C(=C/c2ccc(-c3ccc(N4C[C@H](CNC(C)=O)OC4=O)cc3F)cc2)SC1=S
2. CCCN1C(=O)/C(=C/c2ccc(-c3ccc(N4C[C@H](CNC(C)=O)OC4=O)cc3F)cc2)SC1=S
3. CC(=O)NC[C@H]1CN(c2ccc(N3CCOCC3)c(F)c2)C(=O)O1

1 µg/mL
2 µg/mL
1 µg/mL

Recorded MIC of CC(=O)NC[C@H]1CN(c2ccc(-c3ccc(/C=C4\NC(=S)N(C)C4=O)cc3)c(F)c2)C(=O)O1 , please.
0.5 µg/mL
